Target: NEK7 (Homo sapiens (Human), UniProt Q8TDX7+Q96SW2)
Sequence (Q8TDX7 whole entry): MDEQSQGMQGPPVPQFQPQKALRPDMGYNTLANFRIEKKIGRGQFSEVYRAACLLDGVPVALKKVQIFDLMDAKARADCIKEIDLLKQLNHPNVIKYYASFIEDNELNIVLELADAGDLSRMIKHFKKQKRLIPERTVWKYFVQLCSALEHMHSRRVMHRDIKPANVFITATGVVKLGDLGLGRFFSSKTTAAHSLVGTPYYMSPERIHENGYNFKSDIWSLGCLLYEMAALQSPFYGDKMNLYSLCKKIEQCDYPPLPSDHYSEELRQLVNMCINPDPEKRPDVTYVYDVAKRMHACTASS
Sequence (Q96SW2 whole entry): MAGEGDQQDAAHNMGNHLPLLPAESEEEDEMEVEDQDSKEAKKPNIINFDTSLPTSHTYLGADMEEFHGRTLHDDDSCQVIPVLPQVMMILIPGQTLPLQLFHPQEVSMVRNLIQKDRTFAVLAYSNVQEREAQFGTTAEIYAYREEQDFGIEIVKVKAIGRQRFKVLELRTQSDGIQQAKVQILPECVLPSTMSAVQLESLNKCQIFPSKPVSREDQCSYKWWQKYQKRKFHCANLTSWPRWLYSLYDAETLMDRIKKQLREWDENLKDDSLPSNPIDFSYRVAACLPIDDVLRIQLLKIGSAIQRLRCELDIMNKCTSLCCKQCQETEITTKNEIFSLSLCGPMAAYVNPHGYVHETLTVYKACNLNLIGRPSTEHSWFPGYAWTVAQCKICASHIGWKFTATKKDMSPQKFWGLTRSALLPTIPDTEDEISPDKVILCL
Sequence (Q16531 2-1140 partner): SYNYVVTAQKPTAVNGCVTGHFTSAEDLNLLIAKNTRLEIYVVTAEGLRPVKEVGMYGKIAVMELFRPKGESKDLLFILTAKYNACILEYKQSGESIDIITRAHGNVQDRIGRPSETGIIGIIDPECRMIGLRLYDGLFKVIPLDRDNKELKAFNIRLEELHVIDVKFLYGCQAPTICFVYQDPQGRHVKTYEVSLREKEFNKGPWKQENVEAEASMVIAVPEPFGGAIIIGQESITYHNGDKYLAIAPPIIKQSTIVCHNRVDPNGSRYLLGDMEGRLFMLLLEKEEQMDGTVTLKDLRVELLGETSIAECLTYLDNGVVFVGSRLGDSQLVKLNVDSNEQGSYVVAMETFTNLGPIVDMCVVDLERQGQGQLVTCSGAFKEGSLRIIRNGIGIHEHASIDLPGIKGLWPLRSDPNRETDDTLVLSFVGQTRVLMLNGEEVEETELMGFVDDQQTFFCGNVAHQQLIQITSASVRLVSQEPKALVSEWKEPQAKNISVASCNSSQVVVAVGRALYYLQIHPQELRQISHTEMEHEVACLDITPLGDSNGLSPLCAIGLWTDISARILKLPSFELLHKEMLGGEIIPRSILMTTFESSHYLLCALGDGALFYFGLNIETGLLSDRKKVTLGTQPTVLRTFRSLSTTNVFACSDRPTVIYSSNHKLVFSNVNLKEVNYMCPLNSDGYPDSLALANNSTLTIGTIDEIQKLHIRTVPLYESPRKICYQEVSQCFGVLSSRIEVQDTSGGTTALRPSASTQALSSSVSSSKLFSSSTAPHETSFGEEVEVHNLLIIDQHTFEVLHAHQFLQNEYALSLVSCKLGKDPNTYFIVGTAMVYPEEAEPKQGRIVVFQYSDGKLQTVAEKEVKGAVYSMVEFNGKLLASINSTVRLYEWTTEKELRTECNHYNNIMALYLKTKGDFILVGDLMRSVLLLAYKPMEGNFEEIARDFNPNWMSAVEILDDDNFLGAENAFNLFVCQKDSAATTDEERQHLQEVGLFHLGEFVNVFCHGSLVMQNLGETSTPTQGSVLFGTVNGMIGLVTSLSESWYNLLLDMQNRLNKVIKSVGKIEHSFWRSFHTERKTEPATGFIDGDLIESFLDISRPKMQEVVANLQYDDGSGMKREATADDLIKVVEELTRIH
Test: NEK7 NanoBiT degradation assay in Cal51 NEK7 NanoBiT cell line
Type: cell-based
Conditions: CAL-51; Cal51 NEK7 NanoBiT cells, 24 hours; read-out: NEK7 NanoBiT Dmax
Kindly return y if reported Dmax is no lower than 80%; return n if it is lower.

[[record]]
compound = "CC(C)(C(=O)NCc1cc(Cl)c(C2CCC(=O)NC2=O)c(Cl)c1)c1nccc(C(F)(F)F)n1 (centres unmarked) [Compound 174]"
system_name = "NEK7 (Homo sapiens (Human), UniProt Q8TDX7+Q96SW2)"
label_value = "n"

[[record]]
compound = "Cc1cc(C(C)(C)C(=O)NCc2cc(Cl)c(C3CCC(=O)NC3=O)c(Cl)c2)cc(C)n1 (centres unmarked) [Compound 86]"
system_name = "NEK7 (Homo sapiens (Human), UniProt Q8TDX7+Q96SW2)"
label_value = "y"

[[record]]
compound = "Cc1cnc(C(C)(C)C(=O)NCc2cc(C)c(C3CCC(=O)NC3=O)c(Cl)c2)nc1 (centres unmarked) [Compound 271]"
system_name = "NEK7 (Homo sapiens (Human), UniProt Q8TDX7+Q96SW2)"
label_value = "n"

[[record]]
compound = "CC(C)(C(=O)NCc1cc(Cl)c(C2CCC(=O)NC2=O)c(Cl)c1)c1ccnc2ccccc12 (centres unmarked) [Compound 63]"
system_name = "NEK7 (Homo sapiens (Human), UniProt Q8TDX7+Q96SW2)"
label_value = "n"

[[record]]
compound = "O=C1CCC(c2ccc(CNC(=O)C3(c4ccc(F)cc4)CCOCC3)cc2Cl)C(=O)N1 (centres unmarked) [Compound 138]"
system_name = "NEK7 (Homo sapiens (Human), UniProt Q8TDX7+Q96SW2)"
label_value = "y"

[[record]]
compound = "CC1(C(=O)NCc2cc(Cl)c(C3CCC(=O)NC3=O)c(Cl)c2)COc2ccccc2C1 (centres unmarked) [Compound 38]"
system_name = "NEK7 (Homo sapiens (Human), UniProt Q8TDX7+Q96SW2)"
label_value = "y"


Switching to the query record.
Challenge: Hi team, for CC(C)(C(=O)NCc1cc(Cl)c(C2CCC(=O)NC2=O)c(Cl)c1)c1ccc(F)cn1 (centres unmarked) [Compound 22] , is the recorded Dmax at or above 80%?
Response given: y
